- TESTED_ON: hP2X7 (Homo sapiens, UniProt Q99572)
- Construct: expressed in transfected cells; host or cells: HEK293 cells, stably transfected (HEK-hP2X7)
- Sequence (Q99572 whole entry): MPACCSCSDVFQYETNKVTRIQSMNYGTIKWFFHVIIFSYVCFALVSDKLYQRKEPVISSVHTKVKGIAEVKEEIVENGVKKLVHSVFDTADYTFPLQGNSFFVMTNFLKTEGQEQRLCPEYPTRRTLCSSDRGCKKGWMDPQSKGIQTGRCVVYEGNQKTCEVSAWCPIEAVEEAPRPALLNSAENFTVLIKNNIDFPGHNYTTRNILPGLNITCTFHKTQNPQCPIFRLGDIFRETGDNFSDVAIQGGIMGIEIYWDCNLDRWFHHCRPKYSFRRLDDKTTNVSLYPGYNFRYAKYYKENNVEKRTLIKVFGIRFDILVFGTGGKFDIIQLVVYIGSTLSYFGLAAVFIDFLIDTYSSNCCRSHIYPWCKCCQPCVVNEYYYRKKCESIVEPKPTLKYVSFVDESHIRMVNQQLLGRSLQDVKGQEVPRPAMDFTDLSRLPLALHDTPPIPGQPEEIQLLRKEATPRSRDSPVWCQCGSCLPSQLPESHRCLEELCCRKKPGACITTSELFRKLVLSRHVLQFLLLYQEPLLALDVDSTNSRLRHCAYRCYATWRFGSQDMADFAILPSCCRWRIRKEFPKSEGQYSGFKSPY
- TEST_DESCRIPTION: Fura-2AM Ca2+ response assay in HEK-hP2X7 cells
- Format: cell-based
- CONDITION_DESCRIPTION: EC50 of ATP, Ca2+ response, in presence of 3 μM 6-FPHMA
OBSERVED_PROPERTY: pEC50
Lab note: report pEC50 as minus log10 of the concentration in molar units, number only.

GET /values?readout=pEC50&item= Nc1ncnc2c1ncn2[C@@H]1O[C@H](COP(=O)(O)OP(=O)(O)OP(=O)(O)O)[C@@H](O)[C@H]1O [ATP, adenosine 5′-triphosphate]
3.07

---

- TESTED_ON: hP2X7 (Homo sapiens)
- Construct: expressed in transfected cells; host or cells: HEK293 cells, stably transfected (HEK-hP2X7)
- TEST_DESCRIPTION: ATP-induced ethidium+ uptake in stably transfected HEK-hP2X7 cells (flow cytometry)
- Type: cell-based
- CONDITION_DESCRIPTION: EC50 of ATP, ethidium+ uptake, in presence of 0.3 μM 6-FPHMA
OBSERVED_PROPERTY: pEC50
Lab note: report pEC50 as minus log10 of the concentration in molar units, number only.

Item: Nc1ncnc2c1ncn2[C@@H]1O[C@H](COP(=O)(O)OP(=O)(O)OP(=O)(O)O)[C@@H](O)[C@H]1O [ATP, adenosine 5′-triphosphate] Test system: hP2X7 (Homo sapiens) Read-out: pEC50 Value: ?
3.33

---

- TESTED_ON: P2X7 (Homo sapiens, UniProt Q99572)
- TEST_DESCRIPTION: ATP-induced YO-PRO-1 uptake into human T cells (PBMCs)
- Format: cell-based
- Set-up: Human peripheral blood mononuclear cells (PBMCs) were pre-incubated with DMSO (vehicle) or 30 μM 6-FPHMA; endogenous in cells; host or cells: cryopreserved human PBMCs (CD3+, CD4+, CD8+ T cells), four donors
- CONDITION_DESCRIPTION: 30 μM compound, 1 mM ATP
OBSERVED_PROPERTY: reduction of ATP-induced YO-PRO-1 uptake into CD3+ T cells (%)
Numeric only. Scale: %

COMPOUND: O=C(NCC1(N2CCN(c3ccccc3)CC2)CCOCC1)c1cccnc1Sc1ccccc1 [JNJ-47965567]
TESTED_ON: P2X7 (Homo sapiens, UniProt Q99572)
READOUT_VALUE: 79

GET /values?readout=reduction of ATP-induced YO-PRO-1 uptake into CD3+ T cells&item= CCOc1ccc(Nc2ccc(/C(=C3C=C/C(=[N+](/CC)Cc4cccc(S(=O)(=O)[O-])c4)C=C/3C)c3ccc(N(CC)Cc4cccc(S(=O)(=O)O)c4)cc3C)cc2)cc1 [BBG, Brilliant Blue G]
90

GET /values?readout=reduction of ATP-induced YO-PRO-1 uptake into CD3+ T cells&item= N=C(N)NC(=O)c1nc(-c2cc3cnccc3o2)c(N2CCCCCC2)nc1N [6-FPHMA]
62

All values here come from paper PMC9496321.
